Task for the reader: assign each of the following molecules its reported DC50.
Biological target: STAT3 (Homo sapiens)
Construct: This cell line is a clone created by using CRISPR-Cas9 to fuse HiBiT to the 3′ end of STAT3 in HeLa cells; host or cells: STAT3-HiBiT KI HeLa cell line (CRISPR-Cas9 knock-in clone)
Sequence (P40763 whole entry): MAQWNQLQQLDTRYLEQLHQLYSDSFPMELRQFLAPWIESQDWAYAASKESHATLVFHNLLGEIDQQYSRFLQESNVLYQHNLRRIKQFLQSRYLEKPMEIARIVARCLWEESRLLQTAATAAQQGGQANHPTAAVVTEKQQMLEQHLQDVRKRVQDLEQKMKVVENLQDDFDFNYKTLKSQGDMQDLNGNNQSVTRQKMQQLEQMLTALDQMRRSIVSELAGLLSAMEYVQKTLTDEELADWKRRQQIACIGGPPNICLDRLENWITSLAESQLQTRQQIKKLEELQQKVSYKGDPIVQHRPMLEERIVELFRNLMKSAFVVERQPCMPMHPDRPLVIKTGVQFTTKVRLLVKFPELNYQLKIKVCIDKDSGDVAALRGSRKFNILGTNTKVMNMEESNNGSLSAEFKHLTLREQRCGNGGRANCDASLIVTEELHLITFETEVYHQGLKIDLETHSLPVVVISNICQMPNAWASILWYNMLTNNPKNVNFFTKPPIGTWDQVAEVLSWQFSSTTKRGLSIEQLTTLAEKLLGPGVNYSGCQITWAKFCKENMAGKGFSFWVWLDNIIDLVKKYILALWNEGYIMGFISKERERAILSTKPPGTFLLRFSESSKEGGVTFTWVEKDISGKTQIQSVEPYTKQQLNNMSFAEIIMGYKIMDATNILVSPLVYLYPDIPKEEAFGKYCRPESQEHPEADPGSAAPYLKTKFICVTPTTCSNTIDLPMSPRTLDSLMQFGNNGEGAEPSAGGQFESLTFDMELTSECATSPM
Test: HiBiT assay, STAT3 degradation in STAT3-HiBiT KI HeLa cells
Type: cell-based
Conditions: 24 h, read-out: STAT3 Degradation (HeLa 24 h HiBit) DC50

Would you kindly share the measured DC50 for Cc1ncsc1-c1ccc([C@H](C)NC(=O)[C@@H]2C[C@@H](O)CN2C(=O)[C@@H](n2cc(CCCC(=O)N3CC[C@H]4CC[C@@H](C(=O)N[C@@H](CCC(N)=O)C(=O)NC(c5ccccc5)c5ccccc5)N4C(=O)[C@@H](NC(=O)c4cc5cc(C(=O)P(=O)(O)O)ccc5[nH]4)C3)nn2)C(C)(C)C)cc1 ?
> 1000 nM

Would you kindly share the measured DC50 for CC(=O)N1CC[C@H]2CC[C@@H](C(=O)N[C@@H](CCC(N)=O)COc3cccc(CCCc4cn([C@H](C(=O)N5C[C@H](O)C[C@H]5C(=O)N[C@@H](CO)c5ccc(-c6scnc6C)cc5)C(C)(C)C)nn4)c3Cl)N2C(=O)[C@@H](NC(=O)c2cc3cc(C(=O)P(=O)(O)O)ccc3[nH]2)C1 ?
< 10 nM

Would you kindly share the measured DC50 for Cc1ncsc1-c1ccc([C@H](C)NC(=O)[C@@H]2C[C@@H](O)CN2C(=O)[C@@H](NC(=O)CC(=O)N2CC[C@H]3CC[C@@H](C(=O)N[C@@H](CCC(N)=O)C(=O)NC(c4ccccc4)c4ccccc4)N3C(=O)[C@@H](NC(=O)c3cc4cc(C(=O)P(=O)(O)O)ccc4[nH]3)C2)C(C)(C)C)cc1 ?
> 1000 nM
